- Tested on: Daudi Cell Culture
- assay.remarks: Compound primary screening in Daudi cell culture
- Type: cell-based
- condition.notes: Homo sapiens, 168 h; Daudi cells, 1250 cells per well, reads on Day 7
pEC50: −log10 of the molar value.
We begin with a simple list: items and their reported pEC50.
experimental.endpoint: pEC50

>>> print(df.to_string())
                                   molecule  experimental_endpoint  measured
0  CC(=O)Nc1ccc(-c2cnc(-c3ccc(NC(=S)NC(C)C)cc3)s2)c(S(=O)(=O)NCCO)c1 [Compound D28]                  pEC50    < 5.00
1  CC(=O)N(C)c1ccc(-c2cnc(-c3ccc(N)cc3)s2)c(S(=O)(=O)NC(C)(C)C)c1 [Compound E14]                  pEC50    < 5.00
2  Cc1cc(NC(=O)OC(C)C)ccc1-c1ncc(-c2ccc(NC(=O)OC(C)C)cc2S(=O)(=O)NC(C)(C)C)s1 [Compound R1]                  pEC50    > 6.00
3  CC(C)NC(=O)Nc1ccc(-c2ncc(-c3ccc(N4CCCC4=O)cc3S(=O)(=O)NC(C)(C)C)s2)cc1 [Compound J7]                  pEC50    > 5.00
4  CCOC(=O)Nc1ccc(-c2cnc(-c3ccc(NC(=O)OC(C)C)cc3)s2)c(S(=O)(=O)NC(C)(C)C)c1 [Compound H6]                  pEC50    > 6.00
5  CC(=O)Nc1ccc(-c2cnc(-c3ccc(NCC(C)(C)O)cc3)s2)c(S(=O)(=O)NC(C)(C)C)c1 [Compound J12]                  pEC50    < 5.00
6  CNS(=O)(=O)Nc1ccc(-c2ncc(-c3ccc(NC(C)=O)cc3S(=O)(=O)NC(C)(C)C)s2)cc1 [Compound G9]                  pEC50    < 5.00
